Sourced from ChEMBL document CHEMBL4673235

protocol: Selectivity index, ratio of IC50 for human MRC5 cells to IC50 for human SK-OV-3 cells by CellTiter Glo luminescent assay
Type: toxicity
applied_conditions: MRC5 cells versus SK-OV-3 cells, read-out: Ratio IC50
assay_endpoint: selectivity ratio
// no unit string in output, number only

Some solved entries appear below for comparison.
>>> print(df.to_string())
                           structure_smiles  endpoint_result
0  C=C(CC)C(=O)c1ccc(OCC(=O)NC2CCN(S(=O)(=O)c3ccc(OC)cc3)CC2)c(Cl)c1Cl               14
1  C=C(CC)C(=O)c1ccc(OCC(=O)NC2CCN(S(=O)(=O)c3cc(Cl)ccc3OC)CC2)c(Cl)c1Cl                6

According to the records, this compound `C=C(CC)C(=O)c1ccc(OCC(=O)N2CCN(S(=O)(=O)c3ccc(OC)cc3)CC2)c(Cl)c1Cl` displays selectivity ratio of 0.45

====

Tested on: MRC5
protocol: Cytotoxicity against human MRC5 cells assessed as reduction in cell viability by CellTiter Glo luminescent assay
Format: cell-based
assay_endpoint: IC50 (nM)
Express it in nM; write the number only.

Known IC50 results, listed for orientation:
>>> df
                           structure_smiles  value_unit  endpoint_result
0  C=C(CC)C(=O)c1ccc(OCC(=O)NC2CCN(S(=O)(=O)c3ccc(OC)cc3)CC2)c(Cl)c1Cl          nM             4320
1  C=C(CC)C(=O)c1ccc(OCC(=O)N2CCN(S(=O)(=O)c3ccc(OC)cc3)CC2)c(Cl)c1Cl          nM              100
2  COc1cccc2c1C(=O)c1c(O)c3c(c(O)c1C2=O)C[C@@](O)(C(=O)CO)C[C@@H]3O[C@H]1C[C@H](N)[C@H](O)[C@H](C)O1          nM               39

MRC5 IC50 of `C=C(CC)C(=O)c1ccc(OCC(=O)NC2CCN(S(=O)(=O)c3cc(Cl)ccc3OC)CC2)c(Cl)c1Cl` is 900

====

Tested on: HL-60
protocol: Cytotoxicity against human HL-60 cells assessed as reduction in cell viability by CellTiter Glo luminescent assay
Assay type: functional, cell-based
Consider the following compounds and their measured pIC50 readings.
When answering, recall that pIC50 equals minus log10 of the concentration in mol/L, and write that number alone.

Worked set:
In [3]: df
Out[3]:
                           structure_smiles  subject_of_test  assay_endpoint  endpoint_result
0  C=C(CC)C(=O)c1ccc(OCC(=O)NC2CCN(S(=O)(=O)c3cccc4cccnc34)CC2)c(Cl)c1Cl            HL-60           pIC50             6.01
1  C=C(CC)C(=O)c1ccc(OCC(=O)NC2CCN(S(=O)(=O)c3cc(Cl)ccc3OC)CC2)c(Cl)c1Cl            HL-60           pIC50             6.15
2  C=C(CC)C(=O)c1ccc(OCC(=O)N2CCN(S(=O)(=O)c3cc(Cl)ccc3OC)CC2)c(Cl)c1Cl            HL-60           pIC50             5.85
3  C=C(CC)C(=O)c1ccc(OCC(=O)NC2CCN(S(=O)(=O)c3ccc(OC)cc3OC)CC2)c(Cl)c1Cl            HL-60           pIC50             6.07

The value of pIC50 recorded for `C=C(CC)C(=O)c1ccc(OCC(=O)NCCNS(=O)(=O)c2ccc(OC)cc2)c(Cl)c1Cl` when tested on HL-60 reads 6.07
